The measured values listed here are drawn from patent US20220144812A1.

TARGET DESC: CREBBP (1084-1701) (Homo sapiens, UniProt Q92793)
Construct: measured in the following biochemical assay using CREBBP (1084-1701); purchased
Sequence (Q92793 1084-1701): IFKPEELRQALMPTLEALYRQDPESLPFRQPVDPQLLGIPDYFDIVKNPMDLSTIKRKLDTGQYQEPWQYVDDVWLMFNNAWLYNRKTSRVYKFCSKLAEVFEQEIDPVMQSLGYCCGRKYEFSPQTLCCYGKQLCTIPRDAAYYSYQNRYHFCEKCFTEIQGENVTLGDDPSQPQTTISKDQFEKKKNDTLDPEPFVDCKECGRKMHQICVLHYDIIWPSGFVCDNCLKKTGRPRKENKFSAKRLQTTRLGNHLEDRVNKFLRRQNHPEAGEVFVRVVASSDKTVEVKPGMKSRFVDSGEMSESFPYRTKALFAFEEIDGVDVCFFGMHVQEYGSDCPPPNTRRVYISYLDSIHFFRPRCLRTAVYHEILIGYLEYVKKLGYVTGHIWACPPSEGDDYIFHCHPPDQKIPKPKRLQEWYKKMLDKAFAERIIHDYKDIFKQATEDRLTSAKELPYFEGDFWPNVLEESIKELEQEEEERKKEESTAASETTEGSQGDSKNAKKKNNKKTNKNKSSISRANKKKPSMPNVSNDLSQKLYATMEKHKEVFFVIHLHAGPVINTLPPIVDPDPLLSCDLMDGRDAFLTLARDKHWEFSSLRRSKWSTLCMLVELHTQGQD
MEASUREMENT NOTES: Biochemical assay for CREBBP (1084-1701), SAMDI
TEST PARAMETERS: SAMDI, read-out: CREBBP Biochemistry IC50
ASSAY METRIC: IC50 (nM)

[[record]]
molecule = "CCn1ncc(CN(C)C(=O)c2nc(-c3ccc(OCC(O)CN4CCCC4)c(Cl)c3)nc3ccc(Cl)cc23)c1C (stereo not drawn)"
target_desc = "CREBBP (1084-1701) (Homo sapiens, UniProt Q92793)"
assay_metric = "IC50"
result_units = "nM"
experimental_result = 39

[[record]]
molecule = "CCn1ncc(CN(C)C(=O)c2nc(-c3cc4c(C)[nH]nc4cc3Cl)nc3ccc(Cl)cc23)c1C"
target_desc = "CREBBP (1084-1701) (Homo sapiens, UniProt Q92793)"
assay_metric = "IC50"
result_units = "nM"
experimental_result = 3.3

[[record]]
molecule = "CCc1ccc2nc(-c3cccc(Cl)c3)nc(C(=O)N(C)Cc3cnn(CC)c3C)c2c1"
target_desc = "CREBBP (1084-1701) (Homo sapiens, UniProt Q92793)"
assay_metric = "IC50"
result_units = "nM"
experimental_result = 2.8

[[record]]
molecule = "CCn1ncc(CN(C)C(=O)c2cc(-c3ccccn3)nc3ccc(Cl)cc23)c1C"
target_desc = "CREBBP (1084-1701) (Homo sapiens, UniProt Q92793)"
assay_metric = "IC50"
result_units = "nM"
experimental_result = 310

[[record]]
molecule = "CCn1ncc(CN(C)C(=O)c2cc(-c3ccc(NCCN(C)C)c(C(F)(F)F)n3)nc3ccc(Cl)cc23)c1C"
target_desc = "CREBBP (1084-1701) (Homo sapiens, UniProt Q92793)"
assay_metric = "IC50"
result_units = "nM"
experimental_result = 23.8

[[record]]
molecule = "CCn1ncc(CN(C)C(=O)c2nc(-c3cc(N)cc(Cl)c3)nc3ccc(Cl)cc23)c1C"
target_desc = "CREBBP (1084-1701) (Homo sapiens, UniProt Q92793)"
assay_metric = "IC50"
result_units = "nM"
experimental_result = 4.6

[[record]]
molecule = "CCc1ncc(CN(C)C(=O)c2cc(-c3cc(-c4ncc[nH]4)n(C)n3)nc3ccc(Cl)cc23)n1C"
target_desc = "CREBBP (1084-1701) (Homo sapiens, UniProt Q92793)"
assay_metric = "IC50"
result_units = "nM"
experimental_result = 11.2

[[record]]
molecule = "CCn1ncc(CN(C)C(=O)c2nc(N3CCc4[nH]cnc4C3)nc3ccc(Cl)cc23)c1C"
target_desc = "CREBBP (1084-1701) (Homo sapiens, UniProt Q92793)"
assay_metric = "IC50"
result_units = "nM"
experimental_result = 18000

[[record]]
molecule = "CCn1ncc(CN(C)C(=O)c2nc(-c3cccc(-c4ccn[nH]4)c3)nc3ccc(Cl)cc23)c1C"
target_desc = "CREBBP (1084-1701) (Homo sapiens, UniProt Q92793)"
assay_metric = "IC50"
result_units = "nM"
experimental_result = 2800

[[record]]
molecule = "CCn1ncc(CN(C)C(=O)c2nc(-c3ccc(OCC(O)CN4CCCC4)cc3Cl)nc3ccc(Cl)cc23)c1C (stereo not drawn)"
target_desc = "CREBBP (1084-1701) (Homo sapiens, UniProt Q92793)"
assay_metric = "IC50"
result_units = "nM"
experimental_result = 28

[[record]]
molecule = "CCn1ncc(CN(C)C(=O)c2cc(-c3ccc(NCCOC)c(C)n3)nc3ccc(Cl)cc23)c1C"
target_desc = "CREBBP (1084-1701) (Homo sapiens, UniProt Q92793)"
assay_metric = "IC50"
result_units = "nM"
experimental_result = 23.6

[[record]]
molecule = "CCn1ncc(CN(C)C(=O)c2nc(-c3cc(C(=O)Nc4ccccc4)n(C)n3)nc3ccc(Cl)cc23)c1C"
target_desc = "CREBBP (1084-1701) (Homo sapiens, UniProt Q92793)"
assay_metric = "IC50"
result_units = "nM"
experimental_result = 50000

[[record]]
molecule = "CCn1ncc(CN(C)C(=O)c2cc(-c3cn(C)cn3)nc3ccc(Cl)cc23)c1C"
target_desc = "CREBBP (1084-1701) (Homo sapiens, UniProt Q92793)"
assay_metric = "IC50"
result_units = "nM"
experimental_result = 4500

[[record]]
molecule = "CCn1ncc(CN(C)C(=O)c2nc(-c3cn[nH]c3)nc3ccc(Cl)cc23)c1C [Compound 358]"
target_desc = "CREBBP (1084-1701) (Homo sapiens, UniProt Q92793)"
assay_metric = "IC50"
result_units = "nM"
experimental_result = 16000

[[record]]
molecule = "CCn1ncc(CN(C)C(=O)c2nc(-c3ccc(OCCNC(=O)OC(C)(C)C)c(Cl)c3)nc3ccc(Cl)cc23)c1C"
target_desc = "CREBBP (1084-1701) (Homo sapiens, UniProt Q92793)"
assay_metric = "IC50"
result_units = "nM"
experimental_result = 270

